molecular target: Human H3 Receptor (Homo sapiens); construct: expressed in transfected cells; assay: [3H]-N-Methylhistamine binding, membranes of H3 receptor-expressing SK-N-MC cells; conditions: 0.8 nM [3H]-N-methylhistamine, 60 min at 25° C., average of results; read-out: Ki
Sequence (Q9Y5N1 whole entry): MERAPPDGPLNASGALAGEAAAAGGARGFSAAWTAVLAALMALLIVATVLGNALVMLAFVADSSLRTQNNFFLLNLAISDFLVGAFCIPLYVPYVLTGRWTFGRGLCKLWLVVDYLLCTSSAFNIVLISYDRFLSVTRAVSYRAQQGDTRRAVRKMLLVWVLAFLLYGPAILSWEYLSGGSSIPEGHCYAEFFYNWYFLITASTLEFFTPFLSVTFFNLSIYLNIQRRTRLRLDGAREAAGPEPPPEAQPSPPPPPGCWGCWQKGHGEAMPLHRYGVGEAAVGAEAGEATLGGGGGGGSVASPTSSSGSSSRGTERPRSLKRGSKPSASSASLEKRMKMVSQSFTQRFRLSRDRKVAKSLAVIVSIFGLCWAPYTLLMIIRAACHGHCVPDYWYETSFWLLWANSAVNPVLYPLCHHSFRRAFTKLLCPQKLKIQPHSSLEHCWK
Quantity measured: Ki (nM)
Form entry: value (nM) — number only.

O=C(c1ccc(CN2CCSCC2)cc1)N1CCN(C2CCC2)CC1 = 1
CC(C)N1CCN(C(=O)c2ccc(CN3CCC(F)CC3)cc2)CC1 = 2

Answer with the recorded Ki for the compound listed here: "O=C(c1ccc(CN2CCC(F)CC2)cc1)N1CCN(C2CC2)CC1"
2

Answer with the recorded Ki for the compound listed here: O=C(c1ccc(CN2CCOCC2)cc1)N1CCN(C2CCC2)CC1 [Comparative Example 2]
1

Answer with the recorded Ki for the compound listed here: "O=C(c1ccc(CN2CCOCC2)cc1)N1CCN(C2CC2)CC1"
5.4

Answer with the recorded Ki for the compound listed here: CC(C)N1CCN(C(=O)c2ccc(CN3CCC(F)CC3)cc2)CC1.O=C(O)CC(O)(CC(=O)O)C(=O)O [Comparative Example 3B, citrate salt]
1
